# credit: ChEMBL document CHEMBL3112535

# measurement_target: UniProt:P23141
# Sequence (P23141 whole entry): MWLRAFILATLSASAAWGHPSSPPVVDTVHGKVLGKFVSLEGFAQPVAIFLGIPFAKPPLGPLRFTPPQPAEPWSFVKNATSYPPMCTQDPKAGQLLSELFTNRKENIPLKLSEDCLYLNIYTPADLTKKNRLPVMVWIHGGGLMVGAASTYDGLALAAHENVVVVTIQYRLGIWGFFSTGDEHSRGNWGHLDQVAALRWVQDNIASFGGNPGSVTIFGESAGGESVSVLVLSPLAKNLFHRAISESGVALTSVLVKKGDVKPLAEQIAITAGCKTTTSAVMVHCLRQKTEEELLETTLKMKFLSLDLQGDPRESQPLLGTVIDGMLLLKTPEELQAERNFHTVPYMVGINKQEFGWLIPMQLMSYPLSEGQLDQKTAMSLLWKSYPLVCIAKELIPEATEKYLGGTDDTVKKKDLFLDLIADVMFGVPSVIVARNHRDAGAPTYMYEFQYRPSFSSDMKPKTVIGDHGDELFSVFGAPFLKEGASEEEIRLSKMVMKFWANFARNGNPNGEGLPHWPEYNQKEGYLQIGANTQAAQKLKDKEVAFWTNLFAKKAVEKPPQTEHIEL
# assay_overview: Metabolic stability of the compound in human liver microsomes assessed as carboxylesterase-1-mediated hydrolysis by measuring intrinsic clearance at 1 uM in absence of NADPH
# Format: ADME
Mark Satisfied only for CLint values smaller than 0.1 mL/min/mg; exact matches and larger values are Not satisfied.

Worked examples follow.
{"molecule": "COC(=O)NCCCC(Cc1cn(Cc2ccccc2)nn1)C(=O)Oc1ccc(Oc2ccc(CN(Cc3ccccc3)c3cccc(NS(C)(=O)=O)c3C)cc2)cc1 (centres undefined)", "category_label": "Not satisfied"}
{"molecule": "COC(=O)NCCCC(C)(C)C(=O)Oc1ccc(Oc2ccc(CN(Cc3ccccc3)c3cccc(NS(C)(=O)=O)c3C)cc2)cc1", "category_label": "Not satisfied"}
{"molecule": "C#CCC(CCCNC(=O)OC)C(=O)OCCOc1ccc(Oc2ccc(CN(Cc3ccccc3)c3cccc(NS(C)(=O)=O)c3C)cc2)cc1 (centres undefined)", "category_label": "Not satisfied"}
{"molecule": "COC(=O)NCCCC(C)(Cc1ccccc1)C(=O)Oc1ccc(Oc2ccc(CN(Cc3ccccc3)c3cccc(NS(C)(=O)=O)c3C)cc2)cc1 (centres undefined)", "category_label": "Satisfied"}
{"molecule": "COC(=O)NCCCC(CC(C)C)C(=O)Oc1ccc(Oc2ccc(CN(Cc3ccccc3)c3cccc(NS(C)(=O)=O)c3C)cc2)cc1 (centres undefined)", "category_label": "Satisfied"}

Here's an entry: C#CCC(CCCNC(=O)OC)C(=O)Oc1ccc(Oc2ccc(CN(Cc3ccccc3)c3cccc(NS(C)(=O)=O)c3C)cc2)cc1 (centres undefined) . Is its CLint below 0.1 mL/min/mg?
Not satisfied

Try this molecule too: COC(=O)NCCCC(Cc1cn(Cc2ccccc2)nn1)C(=O)OCCOc1ccc(Oc2ccc(CN(Cc3ccccc3)c3cccc(NS(C)(=O)=O)c3C)cc2)cc1 (centres undefined)
Not satisfied

Try this molecule too: COC(=O)NCCCC(C)C(=O)Oc1ccc(Oc2ccc(CN(Cc3ccccc3)c3cccc(NS(C)(=O)=O)c3C)cc2)cc1 (centres undefined)
Not satisfied

Try this molecule too: COC(=O)NCCCC(Cc1ccccc1)C(=O)Oc1ccc(Oc2ccc(CN(Cc3ccccc3)c3cccc(NS(C)(=O)=O)c3C)cc2)cc1 (centres undefined)
Satisfied
